test: PK profile in SD rats (i.v. / oral gavage, plasma LC-MS); type: in vivo; conditions: female, rat, iv, 1 mg/kg, GEN1-284s dosed i.v. 1 mg/kg, analyte = labelled compound

# compound-smiles, half-life (h)
measured = [
    ("O=C(Cc1ccc2ncccc2c1)N1CCC(n2c(=O)[nH]c3cccc(C(F)(F)F)c32)CC1", 4.16),
]

* * *

assay: PK profile in beagles (i.v. / oral gavage, plasma LC-MS); assay type: in vivo; settings: female, beagle, dog, po, GEN1-284s dosed p.o. 5 mg/kg, analyte = labelled compound

# compound-smiles, Tmax, h
measured = [
    ("O=C(Cc1ccc2ncccc2c1)N1CCC(n2c(=O)[nH]c3cccc(C(F)(F)F)c32)CC1", 1.33),
]

* * *

Attribute: inhibition at 10 µM
biological target: hERG (Homo sapiens); construct: expressed in transfected cells; host or cells: CHO cells, stably transfected; assay: hERG ion channel inhibition, automated QPatch on CHO cells expressing hERG; assay type: cell-based; conditions: human, CHO cells stably expressing hERG channels, 10 μM; read-out: % of hERG inhibition, Cell 2
Sequence (Q12809 whole entry): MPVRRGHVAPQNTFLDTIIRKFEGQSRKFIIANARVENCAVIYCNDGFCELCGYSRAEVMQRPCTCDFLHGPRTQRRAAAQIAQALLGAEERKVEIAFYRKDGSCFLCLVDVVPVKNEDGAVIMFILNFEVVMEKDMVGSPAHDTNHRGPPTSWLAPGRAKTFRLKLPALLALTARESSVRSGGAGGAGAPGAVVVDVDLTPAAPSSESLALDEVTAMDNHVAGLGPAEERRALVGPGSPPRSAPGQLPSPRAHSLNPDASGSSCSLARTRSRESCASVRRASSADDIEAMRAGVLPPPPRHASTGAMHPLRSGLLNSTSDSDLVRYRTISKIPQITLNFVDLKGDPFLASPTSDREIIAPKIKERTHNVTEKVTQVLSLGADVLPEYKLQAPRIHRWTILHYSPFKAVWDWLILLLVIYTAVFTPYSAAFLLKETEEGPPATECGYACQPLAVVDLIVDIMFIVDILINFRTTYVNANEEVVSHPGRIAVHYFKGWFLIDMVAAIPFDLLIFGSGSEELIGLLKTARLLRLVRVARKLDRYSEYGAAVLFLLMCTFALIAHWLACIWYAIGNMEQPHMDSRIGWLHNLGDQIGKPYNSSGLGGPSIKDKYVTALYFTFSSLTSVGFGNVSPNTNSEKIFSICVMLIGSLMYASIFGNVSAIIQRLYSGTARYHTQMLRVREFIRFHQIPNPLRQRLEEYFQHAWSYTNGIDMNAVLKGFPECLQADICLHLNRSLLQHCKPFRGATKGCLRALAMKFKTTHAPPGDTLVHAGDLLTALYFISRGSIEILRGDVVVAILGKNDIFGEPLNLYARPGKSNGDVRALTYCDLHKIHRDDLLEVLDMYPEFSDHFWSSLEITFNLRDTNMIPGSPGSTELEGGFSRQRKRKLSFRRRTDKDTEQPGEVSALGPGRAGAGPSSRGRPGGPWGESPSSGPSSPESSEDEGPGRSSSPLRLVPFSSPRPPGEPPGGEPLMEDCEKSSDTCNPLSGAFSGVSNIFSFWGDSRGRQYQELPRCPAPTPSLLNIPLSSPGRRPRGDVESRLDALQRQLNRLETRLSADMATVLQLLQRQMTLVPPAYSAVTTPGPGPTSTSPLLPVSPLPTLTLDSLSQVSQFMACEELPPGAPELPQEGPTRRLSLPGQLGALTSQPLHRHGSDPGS
measurement-type: inhibition at 10 µM (%)

# molecule, measurement-type, unit-abbrev, number
rows = [
    ("O=C(Cc1ccc2ncccc2c1)N1CCC(n2c(=O)n(COP(=O)([O-])[O-])c3cccc(C(F)(F)F)c32)CC1.[Na+].[Na+] [GEN1-284 salt]", "inhibition at 10 µM", "%", 3.41),
    ("O=C(Cc1ccc2ncccc2c1)N1CCC(n2c(=O)[nH]c3cccc(C(F)(F)F)c32)CC1", "inhibition at 10 µM", "%", 19.3),
]

* * *

test: PK profile in SD rats (i.v. / oral gavage, plasma LC-MS); format: in vivo; settings: female, rat, po, 10 mg/kg, GEN1-117 dosed p.o. 10 mg/kg

# compound-smiles, unit-abbrev, half-life
records = [
    ("O=C(Cc1ccc2ncccc2c1)N1CCC(n2c(=O)[nH]c3cccc(C(F)(F)F)c32)CC1", "h", 4.28),
]

* * *

assay: PK profile in SD rats (i.v. / oral gavage, plasma LC-MS); assay type: in vivo; details: female, rat, po, GEN1-284s dosed p.o. 10 mg/kg, analyte = labelled compound

# compound, half-life, min
rows = [
    ("O=C(Cc1ccc2ncccc2c1)N1CCC(n2c(=O)n(COP(=O)([O-])[O-])c3cccc(C(F)(F)F)c32)CC1.[Na+].[Na+] [GEN1-284 salt]", 57),
]

* * *

Each entry below carries its recorded inhibition at 0.3 µM.
target: hERG ion channel (Homo sapiens); construct: expressed in transfected cells; host or cells: CHO cells, stably transfected; assay: hERG ion channel inhibition, automated QPatch on CHO cells expressing hERG; assay type: cell-based; settings: human, CHO cells stably expressing hERG channels, 0.3 μM; read-out: Mean % hERG inhibition
measurement-type: inhibition at 0.3 µM (%)

# compound, number
data = [
    ("O=C(Cc1ccc2ncccc2c1)N1CCC(n2c(=O)n(COP(=O)([O-])[O-])c3cccc(C(F)(F)F)c32)CC1.[Na+].[Na+] [GEN1-284 salt]", 6.24),
    ("O=C(Cc1ccc2ncccc2c1)N1CCC(n2c(=O)[nH]c3cccc(C(F)(F)F)c32)CC1", 4.06),
]

Source: patent US20240391940A1
